biological target: T1, His-tagged cynomolgus CTLA-4 (CT4-C5227; Acro Biosystems) (cynomolgus, UniProt G7PL88 36-161); assay: BLI (Octet)
T1 construct: also called soluble cynomolgus CTLA-4; cyno CTLA-4
T1 sequence (G7PL88 entry or part of it limits assumed, form in doubt): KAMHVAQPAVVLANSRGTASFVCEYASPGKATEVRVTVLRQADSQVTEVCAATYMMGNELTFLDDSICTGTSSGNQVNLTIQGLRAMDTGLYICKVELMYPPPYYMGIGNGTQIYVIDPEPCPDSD
Recorded measurements of pKd, one per entry
For clarity, pKd is expressed as the negative log10 of concentration in mol/L.

binder	pKd
antibody A17 (L17H17) (antibody, V domains shown, also called aCTLA-4.17) VH: EVQLVESGGGLVQPGGSLRLSCAASGFTFSNYAMSWVRQAPGKGLEWVSAISGGGLSTYYADSVKGRFTISRDNSKNTLYLQMNSLRAEDTAVYYCAKDLLWLGFDYWGQGTLVTVSS VL: DIQMTQSPSSLSASVGDRVTITCRASQAIRNDLGWYQQKPGKAPKRLIYAASSLQSGVPPRFSGSGSGTEFTLTISSLQPEDFATYYCLQHNSYPLTFGGGTKVEIK	8.20
antibody A5 (L5H5) (antibody, V domains shown, also called aCTLA-4.28; CTLA4.A5) VH: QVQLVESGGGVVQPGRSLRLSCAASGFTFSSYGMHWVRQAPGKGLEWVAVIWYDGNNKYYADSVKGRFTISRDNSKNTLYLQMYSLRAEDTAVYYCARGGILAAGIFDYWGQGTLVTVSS VL: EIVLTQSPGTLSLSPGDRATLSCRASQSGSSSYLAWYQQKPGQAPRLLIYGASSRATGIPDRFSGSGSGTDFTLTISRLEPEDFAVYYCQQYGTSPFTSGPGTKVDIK	8.66
antibody A16 (L16H16) (antibody, V domains shown, also called aCTLA-4.5) VH: QVQLVESGGGVVQPGRSLRLSCAASGFTFSSYGIHWVRQAPGKGLEWVAVIWYDGSNKYYADSVKGRFTISRDNSKNTLYLQMNSLRAEDTAVYYCARGSLLGPFDYWGQGTLVTVSS VL: DIQMTQSPSSLSASVGDRVTITCRASQGISNYLAWYQQKPGKVPKLLIYAASTLQSGVPSRFSGSGSGTDFTLTISSLQPEDVATYYCQNYNSAPWTFGQGTKVEIK	8.55

Now look at this one.
Dear colleague, I am looking for the recorded pKd of the following binder: antibody A8 (L8H8) (antibody, V domains shown, also called aCTLA-4.1) VH: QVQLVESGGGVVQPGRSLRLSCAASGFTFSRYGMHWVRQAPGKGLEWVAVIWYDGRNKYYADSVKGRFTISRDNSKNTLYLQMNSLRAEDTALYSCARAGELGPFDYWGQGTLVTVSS VL: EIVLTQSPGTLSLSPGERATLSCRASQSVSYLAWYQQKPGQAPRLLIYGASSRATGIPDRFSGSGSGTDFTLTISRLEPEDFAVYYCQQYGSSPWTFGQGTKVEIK
9.00
